Below, each entry is listed alongside its reported IC50.
# tgt: myeloperoxidase (MPO) (Homo sapiens, UniProt P05164)
# Sequence (P05164 49-745): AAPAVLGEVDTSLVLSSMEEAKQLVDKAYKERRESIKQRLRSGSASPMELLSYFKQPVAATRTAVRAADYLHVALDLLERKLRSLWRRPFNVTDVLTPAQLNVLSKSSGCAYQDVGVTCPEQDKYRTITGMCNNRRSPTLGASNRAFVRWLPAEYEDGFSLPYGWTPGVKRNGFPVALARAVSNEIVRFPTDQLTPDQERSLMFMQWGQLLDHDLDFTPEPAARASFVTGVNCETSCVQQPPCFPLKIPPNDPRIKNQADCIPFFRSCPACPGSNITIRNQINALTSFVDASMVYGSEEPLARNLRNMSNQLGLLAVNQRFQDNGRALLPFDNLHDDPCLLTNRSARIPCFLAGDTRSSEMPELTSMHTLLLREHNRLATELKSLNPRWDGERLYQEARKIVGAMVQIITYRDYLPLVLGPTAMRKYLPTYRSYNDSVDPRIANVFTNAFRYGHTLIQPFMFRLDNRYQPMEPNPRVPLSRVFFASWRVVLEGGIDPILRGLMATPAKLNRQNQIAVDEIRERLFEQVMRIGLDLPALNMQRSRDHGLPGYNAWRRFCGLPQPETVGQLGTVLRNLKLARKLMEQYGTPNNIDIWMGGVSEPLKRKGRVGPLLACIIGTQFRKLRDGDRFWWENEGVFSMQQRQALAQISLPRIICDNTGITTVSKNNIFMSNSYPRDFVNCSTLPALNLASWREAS
# testProtocol: MPO peroxidation assay (Amplex Red assay)
# Type: biochemical
# conditionNotes: MPO peroxidation (Amplex Red), ranges given; read-out: MPO peroxidation assay IC50 values (binned)
# Description: MPO Peroxidation Assay (Amplex Red Assay) MPO peroxidation activity was measured in 100 mM KPi (pH 7.4) by utilizing the non-fluorescent reagent Amplex Red (Invitrogen Cat. #A12222) which can be oxidized to the highly fluorescent resorufin. […] IC50 values were calculated by determining the slope of the linear portion of the kinetic trace (180-540 secs), and using that calculated slope to determine % inhibition occurring at each concentration of inhibitor using the following equation: […]
metricName: IC50

[
  {
    "compound": "Cc1nn(-c2ccc(F)cc2)nc1COc1cc(N)nc2[nH]nnc12",
    "reportedResult": "≤ 60 nM"
  },
  {
    "compound": "Cn1nc(C2CC2)cc1COc1cc(N)nc2[nH]nnc12",
    "reportedResult": "≤ 60 nM"
  },
  {
    "compound": "Cn1nc(COc2cc(N)nc3[nH]nnc23)cc1Br",
    "reportedResult": "≤ 60 nM"
  },
  {
    "compound": "Nc1cc(OCc2nn(-c3cccc(Cl)c3)c3c2CCNC3=O)c2nn[nH]c2n1",
    "reportedResult": "60 to 150 nM"
  },
  {
    "compound": "Cc1nn(C2CCC(C)C2)nc1COc1cc(N)nc2[nH]nnc12 (mixture of isomers)",
    "reportedResult": "≤ 60 nM"
  },
  {
    "compound": "Nc1cc(OCc2cn3nc(Cl)ccc3n2)c2nn[nH]c2n1",
    "reportedResult": "150 to 1000 nM"
  },
  {
    "compound": "Nc1cc(OCc2cccc3cccnc23)c2nn[nH]c2n1",
    "reportedResult": "≤ 60 nM"
  },
  {
    "compound": "Cc1nn(-c2ccc(Br)cc2)nc1COc1cc(N)nc2[nH]nnc12",
    "reportedResult": "150 to 1000 nM"
  },
  {
    "compound": "Nc1nc(OCc2cccc3cccnc23)c2nn[nH]c2n1",
    "reportedResult": "60 to 150 nM"
  }
]

* * *

# tgt: EPX (Homo sapiens)
# Construct: purchased Lee Biosolutions 342-60
# Sequence (P11678 251-715 limits assumed): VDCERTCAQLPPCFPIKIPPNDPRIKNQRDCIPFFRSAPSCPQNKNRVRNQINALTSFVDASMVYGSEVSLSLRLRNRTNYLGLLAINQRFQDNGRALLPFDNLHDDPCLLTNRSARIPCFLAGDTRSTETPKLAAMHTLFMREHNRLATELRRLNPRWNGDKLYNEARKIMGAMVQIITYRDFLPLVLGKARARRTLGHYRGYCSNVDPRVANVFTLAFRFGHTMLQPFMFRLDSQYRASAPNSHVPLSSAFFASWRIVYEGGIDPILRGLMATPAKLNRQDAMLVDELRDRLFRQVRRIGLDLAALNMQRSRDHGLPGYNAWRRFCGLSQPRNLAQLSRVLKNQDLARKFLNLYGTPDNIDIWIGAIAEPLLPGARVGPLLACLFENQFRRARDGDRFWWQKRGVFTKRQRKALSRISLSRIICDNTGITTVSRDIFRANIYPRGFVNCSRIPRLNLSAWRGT
# Sequence (P11678 140-250 limits assumed): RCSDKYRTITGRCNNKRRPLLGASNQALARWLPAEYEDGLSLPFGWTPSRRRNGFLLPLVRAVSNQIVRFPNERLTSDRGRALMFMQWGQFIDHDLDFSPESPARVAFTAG
# testProtocol: EPX bromination assay
# Type: biochemical
# conditionNotes: EPX bromination, 100 mM KPi pH 7.4, ten minute preincubation; read-out: EPX IC50
pIC50: −log10 of the molar value.
A collection of compounds and their measured pIC50

[
  {
    "smilesData": "COc1ccc(-n2nc(C)c(COc3cc(N)nc4[nH]nnc34)n2)cc1",
    "pIC50": 7.40
  },
  {
    "smilesData": "CCn1nc(COc2cc(N)nc3[nH]nnc23)cc1C(F)(F)F",
    "pIC50": 7.15
  },
  {
    "smilesData": "Cn1ncc2c(COc3cc(N)nc4[nH]nnc34)cccc21",
    "pIC50": 7.40
  }
]

* * *

# tgt: myeloperoxidase (MPO) (Homo sapiens)
# testProtocol: MPO peroxidation assay (Amplex Red assay)
# Assay type: biochemical
# conditionNotes: MPO peroxidation (Amplex Red), ranges given; read-out: MPO peroxidation assay IC50 values (binned)
Documented IC50 across a set of compounds

[
  {
    "smilesData": "Nc1nc(OCc2cn(-c3ccccc3)nn2)c2nn[nH]c2n1",
    "tgt": "myeloperoxidase (MPO) (Homo sapiens)",
    "IC50": "60 to 150 nM"
  },
  {
    "smilesData": "Nc1cc(OCc2ncc(-c3ccc(N4CCNCC4)nc3)cc2F)c2nn[nH]c2n1",
    "tgt": "myeloperoxidase (MPO) (Homo sapiens)",
    "IC50": "≤ 60 nM"
  },
  {
    "smilesData": "Cc1nc(-c2ccc(Cl)cc2)ncc1COc1cc(N)nc2[nH]nnc12",
    "tgt": "myeloperoxidase (MPO) (Homo sapiens)",
    "IC50": "150 to 1000 nM"
  },
  {
    "smilesData": "Nc1cc(OCc2csc(-c3ccccc3)n2)c2nn[nH]c2n1",
    "tgt": "myeloperoxidase (MPO) (Homo sapiens)",
    "IC50": "60 to 150 nM"
  },
  {
    "smilesData": "Cn1cnc2cccc(COc3cc(N)nc4[nH]nnc34)c21",
    "tgt": "myeloperoxidase (MPO) (Homo sapiens)",
    "IC50": "150 to 1000 nM"
  },
  {
    "smilesData": "Cc1nn(Cc2ccccc2)nc1COc1cc(N)nc2[nH]nnc12",
    "tgt": "myeloperoxidase (MPO) (Homo sapiens)",
    "IC50": "≤ 60 nM"
  },
  {
    "smilesData": "Nc1cc(OCc2ncc(-c3ccc(C4CC4)nc3)cc2F)c2nn[nH]c2n1",
    "tgt": "myeloperoxidase (MPO) (Homo sapiens)",
    "IC50": "≤ 60 nM"
  },
  {
    "smilesData": "Cc1nc(-c2ccccc2)oc1COc1cc(N)nc2[nH]nnc12",
    "tgt": "myeloperoxidase (MPO) (Homo sapiens)",
    "IC50": "60 to 150 nM"
  },
  {
    "smilesData": "Nc1cc(OCc2cnccc2Cl)c2nn[nH]c2n1",
    "tgt": "myeloperoxidase (MPO) (Homo sapiens)",
    "IC50": "60 to 150 nM"
  },
  {
    "smilesData": "Cc1nn(Cc2cccc(C3CCNCC3)c2)nc1COc1cc(N)nc2[nH]nnc12",
    "tgt": "myeloperoxidase (MPO) (Homo sapiens)",
    "IC50": "≤ 60 nM"
  },
  {
    "smilesData": "COc1ncc(Br)cc1COc1cc(N)nc2[nH]nnc12",
    "tgt": "myeloperoxidase (MPO) (Homo sapiens)",
    "IC50": "≤ 60 nM"
  }
]

* * *

# tgt: myeloperoxidase (MPO) (Homo sapiens, UniProt P05164)
# testProtocol: MPO peroxidation assay (Amplex Red assay)
# Assay type: biochemical
# conditionNotes: MPO peroxidation (Amplex Red), ranges given; read-out: MPO peroxidation assay IC50 values (binned)
metricName: IC50

[
  {
    "smilesData": "Cn1nc(COc2cc(N)nc3[nH]nnc23)cc1-c1ccc(N2CCNCC2)nc1",
    "tgt": "myeloperoxidase (MPO) (Homo sapiens, UniProt P05164)",
    "reportedResult": "≤ 60 nM"
  },
  {
    "smilesData": "Nc1nc(OCc2ccc(Oc3ccccc3)nc2)c2nn[nH]c2n1",
    "tgt": "myeloperoxidase (MPO) (Homo sapiens, UniProt P05164)",
    "reportedResult": "60 to 150 nM"
  },
  {
    "smilesData": "N#Cc1ccccc1-c1cc(COc2cc(N)nc3[nH]nnc23)on1",
    "tgt": "myeloperoxidase (MPO) (Homo sapiens, UniProt P05164)",
    "reportedResult": "≤ 60 nM"
  },
  {
    "smilesData": "Cn1ncc2ccc(COc3cc(N)nc4[nH]nnc34)cc21",
    "tgt": "myeloperoxidase (MPO) (Homo sapiens, UniProt P05164)",
    "reportedResult": "≤ 60 nM"
  },
  {
    "smilesData": "CCn1nc(C(F)(F)F)cc1COc1cc(N)nc2[nH]nnc12",
    "tgt": "myeloperoxidase (MPO) (Homo sapiens, UniProt P05164)",
    "reportedResult": "≤ 60 nM"
  },
  {
    "smilesData": "Nc1cc(OCc2cnc(-c3ccccc3)s2)c2nn[nH]c2n1",
    "tgt": "myeloperoxidase (MPO) (Homo sapiens, UniProt P05164)",
    "reportedResult": "150 to 1000 nM"
  },
  {
    "smilesData": "Nc1cc(OCc2cc(Cl)ncc2F)c2nn[nH]c2n1",
    "tgt": "myeloperoxidase (MPO) (Homo sapiens, UniProt P05164)",
    "reportedResult": "60 to 150 nM"
  },
  {
    "smilesData": "Nc1cc(OCc2ccc(Br)cn2)c2nn[nH]c2n1",
    "tgt": "myeloperoxidase (MPO) (Homo sapiens, UniProt P05164)",
    "reportedResult": "60 to 150 nM"
  },
  {
    "smilesData": "Nc1cc(OCc2cccc(-c3cccc(F)c3)n2)c2nn[nH]c2n1",
    "tgt": "myeloperoxidase (MPO) (Homo sapiens, UniProt P05164)",
    "reportedResult": "60 to 150 nM"
  },
  {
    "smilesData": "Cc1nn(C2CCNCC2)nc1COc1cc(N)nc2[nH]nnc12",
    "tgt": "myeloperoxidase (MPO) (Homo sapiens, UniProt P05164)",
    "reportedResult": "60 to 150 nM"
  },
  {
    "smilesData": "Nc1cc(OCc2cccc3c2ncn3Cc2ccccc2)c2nn[nH]c2n1",
    "tgt": "myeloperoxidase (MPO) (Homo sapiens, UniProt P05164)",
    "reportedResult": "150 to 1000 nM"
  },
  {
    "smilesData": "Cc1oc(-c2ccc(Cl)cc2Cl)nc1COc1cc(N)nc2[nH]nnc12",
    "tgt": "myeloperoxidase (MPO) (Homo sapiens, UniProt P05164)",
    "reportedResult": "≤ 60 nM"
  },
  {
    "smilesData": "Nc1cc(OCc2nc(-c3ccc(C4CC4)nc3)ccc2F)c2nn[nH]c2n1",
    "tgt": "myeloperoxidase (MPO) (Homo sapiens, UniProt P05164)",
    "reportedResult": "≤ 60 nM"
  },
  {
    "smilesData": "Nc1cc(OCc2ncc(Br)cc2F)c2nn[nH]c2n1",
    "tgt": "myeloperoxidase (MPO) (Homo sapiens, UniProt P05164)",
    "reportedResult": "≤ 60 nM"
  },
  {
    "smilesData": "Cn1nc(-c2ccccc2)cc1COc1cc(N)nc2[nH]nnc12",
    "tgt": "myeloperoxidase (MPO) (Homo sapiens, UniProt P05164)",
    "reportedResult": "≤ 60 nM"
  }
]

Values compiled from patent US9920075B2.
